We begin with a simple list: items and their reported normalized growth.
# protocol summary: chemical genetic growth profiling, strain panel (AID 1159580);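 further: tested at 20 µM; growth read once vehicle control cultures reached saturation at 30 °C; 1 = growth at the plate median or of vehicle wells; lower values mean less growth of the strain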
# condition set: S. cerevisiae deletion strains, growth OD, locus YML016C, strain PPZ1, active compounds read low
The whole screen tested about 5,500 compounds, of which about 2,000 (36%) were called active. Inconclusive results (about 18%) are left out. This is one part of the list.
recorded metric: normalized growth

1) O=C(O)c1cc2ccccc2[nH]1; 1.01
2) O=C(O)c1c2ccccc2cc2ccccc12; 1.01
3) CCOC(=O)C(Cc1ccc(O)cc1)NC(C)=O (stereo not given); 1.01
4) C=Cc1c2[nH]c(c1C)C=c1[nH]c(c(C)c1C=C)=CC1N=C(C=c3[nH]c(c(C)c3CCC(=O)O)=C2)C(CCC(=O)O)=C1C (stereo not given); 0.979
5) CC1=C(C(C)O)C2=NC1C=c1[nH]c(c(C)c1C(C)O)=Cc1[nH]c(c(CCC(=O)O)c1C)C=c1[nH]c(c(C)c1CCC(=O)O)=C2 (stereo not given); 1.01

----------
We begin with a simple list: items and their reported normalized growth.
# protocol summary: chemical genetic growth profiling, strain panel (AID 1159580)
# condition set: S. cerevisiae deletion strains, growth OD, locus YNR049C, strain mso1, active compounds read low
In all, about 5,500 compounds went through this assay and about 2,000 (36%) were called active. About 18% were inconclusive and are not listed. The list shows a part of the results.
recorded metric: normalized growth

1) O=C(O)C1(O)C[C@@H](O)C(O)[C@H](O)C1 (stereo not given in full); 0.963
2) OCCN1C[C@@H](O)[C@@H](O)C(O)C1CO (stereo not given in full); 1
3) O=C(O)c1cc2ccccc2c(Cc2c(O)c(C(=O)O)cc3ccccc23)c1O; 1
4) COc1ccc2c(c1OC)C(=O)O[C@H]2[C@H]1c2cc3c(cc2CCN1C)OCO3; 0.995
5) CC(=O)NC1SCCC1=O (stereo not given); 0.975
6) NCCSSCCN; 1
7) CC(=O)N[C@@H](CC(C)C)C(=O)O; 0.988
8) COP(=O)(OC)OC=C(Cl)Cl; 0.982
9) CC1CC2C3CCC4=CC(=O)C=C[C@]4(C)[C@@]3(F)[C@@H](O)C[C@]2(C)[C@@]1(O)C(=O)CO (stereo not given in full); 0.968
10) CC1=C(C(C)O)C2=NC1C=c1[nH]c(c(C)c1C(C)O)=Cc1[nH]c(c(CCC(=O)O)c1C)C=c1[nH]c(c(C)c1CCC(=O)O)=C2 (stereo not given); 0.998
11) CN(C)c1ccc(C(=C2C=CC(=[N+](C)C)C=C2)c2ccc(N(C)C)cc2)cc1; 0.547
12) O=C(O)c1cc2ccccc2[nH]1; 0.983
13) O=C1C=CC(=C(c2ccc(O)cc2)c2ccc(O)cc2)C=C1; 0.979
14) C=Cc1c2[nH]c(c1C)C=c1[nH]c(c(C)c1C=C)=CC1N=C(C=c3[nH]c(c(C)c3CCC(=O)O)=C2)C(CCC(=O)O)=C1C (stereo not given); 1.01
15) CC1=C(CC(=O)O)c2cc(F)ccc2/C1=C\c1ccc(S(C)=O)cc1 (stereo not given); 1.03

----------
We begin with a simple list: items and their reported normalized growth.
# protocol summary: chemical genetic growth profiling, strain panel (AID 1159580);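 further: tested at 20 µM; growth read once vehicle control cultures reached saturation at 30 °C; 1 = growth at the plate median or of vehicle wells; lower values mean less growth of the strain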
# condition set: S. cerevisiae deletion strains, growth OD, locus YDR363W, strain ESC2, active compounds read low
Out of some 5,500 compounds screened, about 2,000 (36%) were called active. About 18% were inconclusive and are not listed. The list shows a part of the results.
recorded metric: normalized growth

1) CCCN(CCC)CCc1ccc(O)c(O)c1; 1.04
2) C[N+](C)(C)CCCCCCCCCC[N+](C)(C)C; 1.02
3) COc1ccc(OC)c(C(O)C(C)N)c1 (stereo unspecified); 1.03
4) C=CCN1C[C@@H](C)N([C@H](c2ccc(C(=O)N(CC)CC)cc2)c2cccc(OC)c2)C[C@@H]1C; 0.992
5) CC(CCc1ccccc1)NC(C)C(O)c1ccc(O)cc1 (stereo unspecified); 0.998
6) COc1ccc2cc([C@H](C)C(=O)O)ccc2c1; 0.979
7) NC1CCN(O)C1=O (stereo unspecified); 0.986
8) CP(=O)(O)C1=CCNCC1; 0.997
9) CC(C(=O)O)c1cccc(C(=O)c2ccccc2)c1 (stereo unspecified); 0.998
10) CNC(=O)[C@H]1O[C@@H](n2cnc3c(N)ncnc32)C(O)[C@H]1O (stereo partly specified); 1.07
11) CNCC(O)c1ccc(O)c(O)c1 (stereo unspecified); 1.01

----------
# protocol summary: chemical genetic growth profiling, strain panel (AID 1159580);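 further: tested at 20 µM; growth read once vehicle control cultures reached saturation at 30 °C; 1 = growth at the plate median or of vehicle wells; lower values mean less growth of the strain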
# condition set: S. cerevisiae deletion strains, growth OD, locus YMR205C, strain PFK2 (second series), active compounds read low
About 2,000 (36%) of roughly 5,500 compounds were called active. About 18% were inconclusive and are not listed. The list shows a part of the results.
recorded metric: normalized growth

1. Cc1nnsc1C(=O)NNc1c(Cl)cccc1Cl; 0.941
2. Cc1cc(C(=O)NNc2ccc(F)cc2F)no1; 0.972
3. O=C(NNc1ccccc1F)c1ccno1; 0.95
4. Cc1nnsc1C(=O)Nc1cc(C(F)(F)F)cc(C(F)(F)F)c1; 0.984
5. Cc1cc(Cl)ccc1NNC(=O)c1snnc1C; 0.922
6. Cc1cc(NNC(=O)c2ccccc2Cl)nc2c1c(C)nn2C; 0.97
7. OC1(C(F)(F)F)CC(C23CC4CC(CC(C4)C2)C3)=NN1 (configuration not stated); 0.735

----------
# protocol summary: chemical genetic growth profiling, strain panel (AID 1159580);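 further: tested at 20 µM; growth read once vehicle control cultures reached saturation at 30 °C; 1 = growth at the plate median or of vehicle wells; lower values mean less growth of the strain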
# condition set: S. cerevisiae deletion strains, growth OD, locus YLR221C, strain rsa3
About 2,000 (36%) of roughly 5,500 compounds were called active. Roughly 18% stayed inconclusive and do not appear here. Cut-off read from the data, not from the text of the source: active = normalized growth mostly below about 0.91 (no sharp cut-off); inconclusive = no clear call, values can overlap the other calls; inactive = mostly above about 0.92. This is one part of the list.
Classes used: active, inactive

1) COc1cc2c(cc1OC)[C@@H]1C(=O)c3ccc4oc(C(C)C)cc4c3O[C@@H]1CO2; inactive
2) Cc1[nH]c(C)c(Cl)c(=O)c1Cl; inactive
3) CC(=O)OCC(=O)[C@H]1CCC2C3CCC4=CC(=O)CC[C@]4(C)C3CC[C@@]21C (stereo partly specified); inactive
4) CC(NCCc1ccc(O)cc1)C(O)c1ccc(O)cc1 (stereo unspecified); inactive
5) COCCc1ccc(OCC(O)CNC(C)C)cc1 (stereo unspecified); inactive
6) CC1=C(C/C=C(\C)CCC[C@H](C)CCC[C@H](C)CCCC(C)C)C(=O)c2ccccc2C1=O; inactive
7) CN[C@@H](C)[C@@H](O)c1ccccc1; inactive
8) Cc1cc(O)c(C=O)c(O)c1C(=O)O; inactive
9) Cc1cccc(C)c1OCC(C)N (stereo unspecified); inactive
10) COc1ccc2c(C)cc(=O)oc2c1; inactive
11) Oc1cc(Cl)ccc1Oc1ccc(Cl)cc1Cl; active
12) CO[C@H]1[C@H](O)[C@H](O[C@H]2CC[C@]3(C)C4CC[C@]5(C)C(C6=CC(=O)OC6)CC[C@]5(O)C4CC[C@@H]3C2)O[C@@H](C)[C@@H]1O (stereo partly specified); inactive
13) CN(C)CC/C=C1\c2ccccc2Sc2ccc(Cl)cc21; inactive
14) CN1CCc2cc3c(cc2[C@H]1C1OC(=O)c2c1ccc1c2OCO1)OCO3 (stereo partly specified); inactive
15) CC(N)C(=O)OC(C)(C)Cc1ccc(Cl)cc1 (stereo unspecified); inactive
16) CCC(=O)O[C@H]1[C@H](O[C@@H]2[C@@H](C)[C@H](O[C@H]3C[C@@](C)(OC)[C@@H](O)[C@H](C)O3)[C@@H](C)C(=O)O[C@H](CC)[C@@](C)(O)[C@H](O)[C@@H](C)C(=O)[C@H](C)C[C@@]2(C)O)O[C@H](C)C[C@@H]1N(C)C; active
17) CC(=O)OCC(=O)[C@@]1(O)CCC2C3CCC4=CC(=O)CC[C@]4(C)C3C(=O)C[C@@]21C (stereo partly specified); inactive
18) ClC1=C(Cl)C2(Cl)C3C(Cl)C=CC3C1(Cl)C2(Cl)Cl (stereo unspecified); inactive
19) COc1cc2c(cc1OC)Cc1cc(OC)c(OC)cc1Cc1cc(OC)c(OC)cc1C2; inactive
20) CNC(C)[C@H](O)c1ccccc1 (stereo partly specified); inactive
21) COc1ccc2c(c1)OCc1c-2oc2cc(OC)ccc12; active
22) CCN(CCO)CCCC(C)Nc1ccnc2cc(Cl)ccc12 (stereo unspecified); inactive
23) S=c1nc[nH]c2nc[nH]c12; inactive
24) COC1=C(OC)C(=O)C(C/C=C(\C)CC/C=C(\C)CC/C=C(\C)CC/C=C(/C)CC/C=C(\C)CC/C=C(\C)CC/C=C(\C)CC/C=C(\C)CC/C=C(\C)CCC=C(C)C)=C(C)C1=O; inactive
25) COc1cc2c(cc1OC)[C@@H]1C(=O)c3ccc(OC)c(CC=C(C)C)c3O[C@@H]1CO2; inactive
26) CC(=O)NC1SCCC1=O (stereo unspecified); inactive
27) N=c1ccn2c(n1)O[C@@H]1C2O[C@H](CO)[C@H]1O (stereo partly specified); inactive
28) CC(CCc1ccccc1)NC(C)C(O)c1ccc(O)cc1 (stereo unspecified); inactive
29) C=C1C2CC[C@H]3[C@]4(C)C[C@H](OC5OC(CO)C(OS(=O)(=O)O)C(OS(=O)(=O)O)C5OC(=O)CC(C)C)C[C@@H](C(=O)O)[C@H]4CC[C@]3(C2)[C@H]1O (stereo partly specified); inactive
30) CC(C)OC(=O)C(C)(C)Oc1ccc(C(=O)c2ccc(Cl)cc2)cc1; inactive
31) CC(N)CCCC(C)(C)O (stereo unspecified); inactive
